target-desc: human vasopressin V2 receptor subtype (Homo sapiens, UniProt P30518)
Construct: host or cells: CHO cells, stably transfected (pZeoSV vector)
Sequence (P30518 whole entry): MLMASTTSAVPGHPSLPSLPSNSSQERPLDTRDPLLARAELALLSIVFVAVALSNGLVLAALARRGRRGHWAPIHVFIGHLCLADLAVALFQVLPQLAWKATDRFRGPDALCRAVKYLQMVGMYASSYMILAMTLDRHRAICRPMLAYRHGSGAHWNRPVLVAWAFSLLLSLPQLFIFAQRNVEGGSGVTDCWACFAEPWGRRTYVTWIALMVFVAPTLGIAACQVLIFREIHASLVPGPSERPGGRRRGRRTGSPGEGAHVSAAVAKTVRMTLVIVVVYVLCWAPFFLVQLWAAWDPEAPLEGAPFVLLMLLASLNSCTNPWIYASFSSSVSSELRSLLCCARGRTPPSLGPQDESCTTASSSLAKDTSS
test-details: Vasopressin binding in CHO cell membranes expressing human vasopressin V2 subtype receptors ([3H]arginine vasopressin radioligand binding)
reported-conditions: 100 nM
reported-metric: inhibition at 0.1 µM (%)
Field format: number, assumed %, no unit text.

Some solved entries appear below for comparison.
COc1cccc(-c2ccc(C(=O)N3Cc4ccc(C(=O)N(C)CCc5ccccn5)n4Cc4ccccc43)cc2OC)c1    11
COc1cc(C(=O)N2Cc3ccc(C(=O)NCc4ccncc4)n3Cc3ccccc32)ccc1-c1cccc2ccccc12    22
COc1cc(C(=O)N2Cc3ccc(C(=O)NCc4ccccn4)n3Cc3ccccc32)ccc1-c1ccccc1C    20
COc1cc(C(=O)N2Cc3ccc(C(=O)N4CCN(c5ccccn5)CC4)n3Cc3ccccc32)ccc1-c1ccccc1C    8
COc1cc(-c2ccccc2C)c(Cl)cc1C(=O)N1Cc2ccc(C(=O)N(C)CCc3ccncc3)n2Cc2ccccc21    25
COc1ccccc1-c1ccc(C(=O)N2Cc3ccc(C(=O)N4CCN(c5ccccn5)CC4)n3Cc3ccccc32)cc1C    9

# context switch: different compound, same inhibition at 0.1 µM
# lookup: inhibition at 0.1 µM of COc1cccc(-c2cc(OC)c(C(=O)N3Cc4ccc(C(=O)N(C)Cc5cccnc5)n4Cc4ccccc43)cc2Cl)c1 24

Origin of measurements: patent US7064120B2
